experimental system: UniProt P30939
Sequence (P30939 1-366): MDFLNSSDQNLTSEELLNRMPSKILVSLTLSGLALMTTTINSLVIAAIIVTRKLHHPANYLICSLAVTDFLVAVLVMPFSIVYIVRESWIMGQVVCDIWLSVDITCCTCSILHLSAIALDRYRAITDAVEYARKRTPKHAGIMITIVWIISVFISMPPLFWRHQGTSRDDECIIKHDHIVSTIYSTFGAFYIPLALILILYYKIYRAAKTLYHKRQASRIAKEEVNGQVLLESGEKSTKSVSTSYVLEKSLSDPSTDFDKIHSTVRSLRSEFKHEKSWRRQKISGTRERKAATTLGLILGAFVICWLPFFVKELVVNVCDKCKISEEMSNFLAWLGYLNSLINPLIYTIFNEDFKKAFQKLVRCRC
test description: biochemical
condition: read-out: 5-HT1F BINDING Ki
quantity measured: pKi
Remember the convention: pKi equals -log10 of concentration in molar.

Input line: Enter measured pKi, system UniProt P30939, for the compound shown: `CC(C)n1cc(CCN2CCC(c3c[nH]c4ccc(C(N)=O)cc34)CC2)cn1`
Output line: 7.99
